For each of the compounds below, state its TGI.
Test system: OVCAR-4 ovarian
Assay: NCI tumour cell line growth inhibition, 48 h
Answers are plain numbers, in µM.

{"smiles-repr": "C=C1C(=O)O[C@H]2[C@H]1CC/C(COC(=O)C(=O)c1cn(C)c3ccc(OC)cc13)=C\\CC[C@@]1(C)O[C@@H]21", "TGI [µM]": 25.5}
{"smiles-repr": "CN(C)CCCC(=O)Nc1ccc(Cn2nnc3c2C(=O)c2nnn(Cc4ccc(NC(=O)CCCN(C)C)cc4)c2C3=O)cc1", "TGI [µM]": 2.64}

Now, please, on to the next compound.
Req: Report TGI for Cn1c(=O)c2[nH]c(-n3nc(-c4ccccc4)cc3N)nc2n(C)c1=O tested on OVCAR-4 ovarian.
Resp: 93.5

Attribution: PubChem BioAssay (NCI)
